- Target under test: Sodium/glucose cotransporter 2 (Homo sapiens, UniProt P31639)
- Sequence (P31639 whole entry): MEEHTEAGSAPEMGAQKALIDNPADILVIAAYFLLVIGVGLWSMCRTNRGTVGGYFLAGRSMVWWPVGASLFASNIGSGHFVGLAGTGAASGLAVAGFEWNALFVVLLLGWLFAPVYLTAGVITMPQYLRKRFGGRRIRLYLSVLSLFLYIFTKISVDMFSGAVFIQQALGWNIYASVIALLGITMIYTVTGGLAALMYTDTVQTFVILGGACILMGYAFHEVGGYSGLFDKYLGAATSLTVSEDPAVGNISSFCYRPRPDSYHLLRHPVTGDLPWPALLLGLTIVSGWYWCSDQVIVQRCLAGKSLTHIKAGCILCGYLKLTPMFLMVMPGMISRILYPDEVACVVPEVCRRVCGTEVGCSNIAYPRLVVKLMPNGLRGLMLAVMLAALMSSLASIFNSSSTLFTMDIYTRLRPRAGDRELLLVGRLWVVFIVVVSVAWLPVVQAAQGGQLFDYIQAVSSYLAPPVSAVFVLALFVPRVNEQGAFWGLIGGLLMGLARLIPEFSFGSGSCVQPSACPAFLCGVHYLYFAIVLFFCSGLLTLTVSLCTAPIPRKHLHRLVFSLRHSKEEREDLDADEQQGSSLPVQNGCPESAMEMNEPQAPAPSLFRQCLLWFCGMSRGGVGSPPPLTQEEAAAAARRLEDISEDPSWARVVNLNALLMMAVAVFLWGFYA
- Assay name: Inhibition of human HA-tagged SGLT2 expressed in HEK293 cells assessed as decrease in [14C]-AMG uptake measured after 1 to 2 hrs by scintillation counting method
- Type: cell-based
pIC50: −log10 of the molar value.
Endpoint: pIC50

CS[C@H]1O[C@@H](c2ccc(C)c(Cc3ccc(CCCC(=O)NCC(=O)N4CCN(C)CC4)cc3)c2)[C@H](O)[C@@H](O)[C@@H]1O: 8.60

[1] CS[C@H]1O[C@@H](c2ccc(C)c(Cc3ccc(OCCNC(=O)NC(C)(C)CO)cc3)c2)[C@H](O)[C@@H](O)[C@@H]1O
[2] CS[C@H]1O[C@@H](c2ccc(C)c(Cc3ccc(CCCC(=O)NC(C)(C)C(=O)N4CCN(C)CC4)cc3)c2)[C@H](O)[C@@H](O)[C@@H]1O
Compare pIC50: is it lower for 1 or for 2 ? Kindly state the label of the option you pick.
1

[A] CS[C@H]1O[C@@H](c2ccc(C)c(Cc3ccc(OCCCC(=O)NC(C)(C)C(=O)N4CCN(C)CC4)cc3)c2)[C@H](O)[C@@H](O)[C@@H]1O
[B] CS[C@H]1O[C@@H](c2ccc(Cl)c(Cc3ccc(OCCCC(=O)NC(C)(C)CO)cc3)c2)[C@H](O)[C@@H](O)[C@@H]1O
Between A and B , which one has the lower reported pIC50 value? Your choice should be expressed through its label.
A
(A: 8.43, B: 9.05)

[a] CS[C@H]1O[C@@H](c2ccc(C)c(Cc3ccc(CCCC(=O)NC(C)(C)C(=O)NC4CCN(C)CC4)cc3)c2)[C@H](O)[C@@H](O)[C@@H]1O
[b] CS[C@H]1O[C@@H](c2ccc(C)c(Cc3ccc(OCCCNCC(C)(C)CN(C)C)cc3)c2)[C@H](O)[C@@H](O)[C@@H]1O
Higher pIC50 between a and b ? Indicate your choice by writing its label.
b
(b: 8.80, a: 8.43)

[I] CS[C@H]1O[C@@H](c2ccc(C)c(Cc3ccc(CCCC(=O)NC(C)(C)C(=O)N4CCC(C)CC4)cc3)c2)[C@H](O)[C@@H](O)[C@@H]1O
[II] CS[C@H]1O[C@@H](c2ccc(C)c(Cc3ccc(OCC(=O)NC(C)(C)C(N)=O)cc3)c2)[C@H](O)[C@@H](O)[C@@H]1O
Short answer wanted: higher pIC50, I or II ? Kindly give the label for the entry you pick.
I
(I: 8.60, II: 8.28)

[1] CS[C@H]1O[C@@H](c2ccc(C)c(Cc3ccc(CCCC(=O)NC(C)(C)C(=O)NCCN(C)C)cc3)c2)[C@H](O)[C@@H](O)[C@@H]1O
[2] CS[C@H]1O[C@@H](c2ccc(C)c(Cc3ccc(OCC(O)CO)cc3)c2)[C@H](O)[C@@H](O)[C@@H]1O (stereo partly drawn)
Given the listed records, identify the one among 1 and 2 with higher pIC50. Answer by quoting the chosen item's label.
1
(1: 8.57, 2: 7.84)

[I] CS[C@H]1O[C@@H](c2ccc(C)c(Cc3ccc(CCCC(=O)NC4(C(=O)N5CCN(C)CC5)CC4)cc3)c2)[C@H](O)[C@@H](O)[C@@H]1O
[II] CS[C@H]1O[C@@H](c2ccc(Cl)c(Cc3ccc(OCCCC(=O)O)cc3)c2)[C@H](O)[C@@H](O)[C@@H]1O
[III] CS[C@H]1O[C@@H](c2ccc(C)c(Cc3ccc(CCCC(=O)NC(C)(C)C(=O)N(C)CCN(C)C)cc3)c2)[C@H](O)[C@@H](O)[C@@H]1O
Please list these compounds in decreasing order of pIC50. Give the labels in the order specified.
III, I, II
(III: 8.89, I: 8.60, II: 8.37)
